Measured values drawn from patent US20080318246A1 for this set.

ASSAY TARGET: 14-3-3τ (UniProt P27348)
Sequence (P27348 whole entry): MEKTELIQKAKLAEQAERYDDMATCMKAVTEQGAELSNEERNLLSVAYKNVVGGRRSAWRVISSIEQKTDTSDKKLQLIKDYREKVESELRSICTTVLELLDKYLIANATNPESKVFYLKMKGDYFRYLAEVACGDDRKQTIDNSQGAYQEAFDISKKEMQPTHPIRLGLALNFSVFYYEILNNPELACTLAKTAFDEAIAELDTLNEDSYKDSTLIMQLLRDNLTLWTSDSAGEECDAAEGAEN
PROTOCOL TEXT: cell-based or functional assay
READOUT TYPE: PKA-induced fluorescence change; Reactive Blue 2 5x (fold)
Entry rule: numbers only, all in fold.

{"SUBSTANCE": "P3, Ac-GRTDap(Pyr)RRFSYP-amide, serine-phosphorylated by PKA in the assay (peptide)", "READING UNIT": "fold", "ENDPOINT RESULT": 1.48}

Q. What value of PKA-induced fluorescence change; Reactive Blue 2 5x on 14-3-3τ (UniProt P27348) does P4, Ac-GRDap(Pyr)GRRFSYP-amide, serine-phosphorylated by PKA in the assay (peptide) have?
A. 2.16

Q. What value of PKA-induced fluorescence change; Reactive Blue 2 5x on 14-3-3τ (UniProt P27348) does P2, Ac-GRTGRRDap(Pyr)SYP-amide, serine-phosphorylated by PKA in the assay (peptide) have?
A. 1.99

Q. What value of PKA-induced fluorescence change; Reactive Blue 2 5x on 14-3-3τ (UniProt P27348) does phosphorylated P5 peptide AcDap(Pyr)RTGRRFS(PO3 2-)YP-amide have?
A. 2.28

---

In this section, each of the substances is paired with its reported PKA-induced fluorescence change; Aniline Blue WS 10x.
ASSAY TARGET: 14-3-3τ (UniProt P27348)
PROTOCOL TEXT: cell-based or functional assay
Entry rule: numbers only, all in fold.

{"SUBSTANCE": "P3, Ac-GRTDap(Pyr)RRFSYP-amide, serine-phosphorylated by PKA in the assay (peptide)", "ENDPOINT RESULT": 2.17}

Q. Which PKA-induced fluorescence change; Aniline Blue WS 10x is reported for this substance? phosphorylated P5 peptide AcDap(Pyr)RTGRRFS(PO3 2-)YP-amide
A. 5.36

Q. Which PKA-induced fluorescence change; Aniline Blue WS 10x is reported for this substance? P2, Ac-GRTGRRDap(Pyr)SYP-amide, serine-phosphorylated by PKA in the assay (peptide)
A. 2.48

Q. Which PKA-induced fluorescence change; Aniline Blue WS 10x is reported for this substance? P4, Ac-GRDap(Pyr)GRRFSYP-amide, serine-phosphorylated by PKA in the assay (peptide)
A. 4.82

---

ASSAY TARGET: 14-3-3τ (UniProt P27348)
PROTOCOL TEXT: cell-based or functional assay
In this section, each of the substances is paired with its reported PKA-induced fluorescence change; Trypan Blue 50x.

Before answering, review these 3 worked examples.
{"SUBSTANCE": "P2, Ac-GRTGRRDap(Pyr)SYP-amide, serine-phosphorylated by PKA in the assay (peptide)", "ENDPOINT RESULT": "6.03 fold"}
{"SUBSTANCE": "P4, Ac-GRDap(Pyr)GRRFSYP-amide, serine-phosphorylated by PKA in the assay (peptide)", "ENDPOINT RESULT": "2.76 fold"}
{"SUBSTANCE": "P3, Ac-GRTDap(Pyr)RRFSYP-amide, serine-phosphorylated by PKA in the assay (peptide)", "ENDPOINT RESULT": "1.6 fold"}

Here is the next item to consider.
Q. Which PKA-induced fluorescence change; Trypan Blue 50x is reported for this substance? phosphorylated P5 peptide AcDap(Pyr)RTGRRFS(PO3 2-)YP-amide
A. 3.48 fold

---

ASSAY TARGET: 14-3-3τ (UniProt P27348)
PROTOCOL TEXT: cell-based or functional assay
READOUT TYPE: PKA-induced fluorescence change; Tartrazine 25x (fold)
Entry rule: numbers only, all in fold.

Before answering, review these 3 worked examples.
{"SUBSTANCE": "P2, Ac-GRTGRRDap(Pyr)SYP-amide, serine-phosphorylated by PKA in the assay (peptide)", "ASSAY TARGET": "14-3-3τ (UniProt P27348)", "READING UNIT": "fold", "ENDPOINT RESULT": 1.82}
{"SUBSTANCE": "P3, Ac-GRTDap(Pyr)RRFSYP-amide, serine-phosphorylated by PKA in the assay (peptide)", "ASSAY TARGET": "14-3-3τ (UniProt P27348)", "READING UNIT": "fold", "ENDPOINT RESULT": 1.47}
{"SUBSTANCE": "P4, Ac-GRDap(Pyr)GRRFSYP-amide, serine-phosphorylated by PKA in the assay (peptide)", "ASSAY TARGET": "14-3-3τ (UniProt P27348)", "READING UNIT": "fold", "ENDPOINT RESULT": 1.46}

Q. Which PKA-induced fluorescence change; Tartrazine 25x is reported for this substance? phosphorylated P5 peptide AcDap(Pyr)RTGRRFS(PO3 2-)YP-amide
A. 1.79
